Recorded EC50, one value per entry.
Tested on: HCV subtype 2A replicon in Huh-7 cells
RUN DESCRIPTION: HCV sub-genomic reporter replicon assay, subtype 2A
Format: cell-based
EXPERIMENTAL SETUP: Hepatitis C virus; Huh-7 cells, HCV subtype 2A replicon; read-out: Replicon 2A EC50
Write it as a number; the unit µM goes unstated.

# annotated cases, reported EC50 shown
{"COMPOUND": "C#Cc1cn([C@@H]2O[C@H](CO)[C@@H](O)[C@H]2O)c2ncnc(C)c12 [Compound 5g]", "EC50 / µM": 21.6}
{"COMPOUND": "CSc1ncnc2c1c(-c1cc3ccccc3o1)cn2[C@@H]1O[C@H](CO)[C@@H](O)[C@H]1O [Compound 2f]", "EC50 / µM": 29.6}
{"COMPOUND": "Cc1ncnc2c1c(-c1ccco1)cn2[C@@H]1O[C@H](CO)[C@@H](O)[C@H]1O [Compound 5a]", "EC50 / µM": 0.15}

Kindly review the next compound as well.
Req: # input compound: CNc1ncnc2c1c(-c1cc3ccccc3o1)cn2[C@@H]1O[C@H](CO)[C@@H](O)[C@H]1O [Compound 3f] ; wanted: its EC50
Resp: 13.6
